I'd appreciate it if you could supply Population Apoptotic (%) values for the items below.
Tested on: U2OS
ASSAY OVERVIEW: Multiplex assay against U2OS
Format: toxicity, cell-based
CONDITION: human, 12 h, 1 µM, compound concentration 1 uM, replicate 1
Report the figure in % without appending any unit label.

Data request: Population Apoptotic (%) lookup needed for "Cc1ccc(S(=O)(=O)NC2c3ccccc3Oc3ccccc32)cc1" , thanks.
Data returned: 47

Data request: Entry "Cc1c(Nc2ccc(S(=O)(=O)N3CCN(C)CC3)cc2F)nc2ccc(Nc3cnn(C4CC4)c3)cn2c1=O" please
Data returned: 50

Data request: Entry "N#CCNC(=O)c1ccc(-c2ccnc(Nc3ccc(N4CCOCC4)cc3)n2)cc1" please
Data returned: 70

Data request: Entry "Cc1ccc(NC(=O)Nc2cc(C(F)(F)F)ccc2F)cc1Nc1ccc2c(c1)NC(=O)/C2=C\c1ccc[nH]1" please
Data returned: 32

Data request: Entry CC(Cc1ccc(O)c(O)c1)C(C)Cc1ccc(O)c(O)c1 (centres undefined) [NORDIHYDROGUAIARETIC ACID] please
Data returned: 64

Data request: Entry "C=CC(=O)Nc1cc(-n2c(=O)ccc3cnc4ccc(-c5ccc(NS(C)(=O)=O)cc5)cc4c32)ccc1C" please
Data returned: 35

Data request: Entry "NC(=O)c1ccc2nc(-c3ccc(C4(N)CCC4)cc3)c(-c3ccccc3)n2n1" please
Data returned: 52

Data request: Entry "Cc1c(Nc2ccc(S(=O)(=O)N3CCN(C)CC3)cc2F)nc2ccc(-c3cnn(C4CC4)c3)cn2c1=O" please
Data returned: 12

Data request: Entry "CCCCN(CC)c1nc(C)nc2c1c(C)cn2-c1c(C)cc(C)cc1C.Cl" please
Data returned: 33

Data request: Entry "CC(/C=C1\SC(=S)N(CCCC(=O)Nc2ccc(C(=O)O)c(O)c2)C1=O)=C\c1ccccc1" please
Data returned: 53

Data request: Entry "CC[C@@H]1C(=O)N(C)c2cnc(Nc3ccc(C(=O)NC4CCN(C)CC4)cc3OC)nc2N1C1CCCC1" please
Data returned: 100

Data request: Entry "CCOc1ccn(-c2ccc(F)cc2)c(=O)c1C(=O)Nc1ccc(Oc2ccnc(N)c2Cl)c(F)c1" please
Data returned: 41

Data request: Entry "CCOC(=O)CCNc1cc(N2CCc3ccccc3CC2)nc(-c2ccccn2)n1" please
Data returned: 37

Data request: Entry CCCCCNC(=N)N/N=C/c1c[nH]c2ccc(OC)cc12.O=C(O)/C=C\C(=O)O [TEGASEROD MALEATE] please
Data returned: 66

====

Test system: U2OS
ASSAY OVERVIEW: Incucyte cell viability with U2OS; also: filed as whole numbers so only -1 and 0 and 1 occur
Format: toxicity, cell-based
CONDITION: human, 18 h, 10 µM, compound concentration 10 uM, replicate number 2, timepoint 18 hours
I'd appreciate it if you could supply Growth Rate values for the items below.

Data request: Growth Rate lookup needed for "Cn1cc(Cl)c2c(Oc3c(F)cc(Nc4cc(Cl)nc(N)n4)cc3F)ccnc21" , thanks.
Data returned: 1

Data request: Entry "OCCn1cc(-c2ccc3c(c2)CCC3=NO)c(-c2ccncc2)n1" please
Data returned: 0

Data request: Entry "CCCCN(Cc1ccccc1)C(=O)c1ccc(S(=O)(=O)Nc2ccccc2)cc1" please
Data returned: 0

Data request: Entry "COc1cc(C#N)ccc1S(=O)(=O)Nc1ccc2c(c1)cc(C)c(=O)n2C" please
Data returned: 1

Data request: Entry CN1C(=O)[C@@H](NC(=O)c2cc3ccccc3[nH]2)N=C(c2ccccc2)c2ccccc21 [DEVAZEPIDE] please
Data returned: 0

Data request: Entry "COc1ccc2c(c1)O[C@H](c1ccc(OC)c(OC)c1)C[C@@H]2NC(=O)C1(c2ccc3c(c2)OC(F)(F)O3)CC1" please
Data returned: 0

Data request: Entry "CC[C@@H]1C(=O)N(C)c2cnc(Nc3ccc(C(=O)NC4CCN(C)CC4)cc3OC)nc2N1C1CCCC1" please
Data returned: 1

Data request: Entry "O=C(N1CCS(=O)(=O)CC1)N1C[C@H](c2ccc(OC(F)(F)F)cc2)C[C@H](c2nc(C3CC3)no2)C1" please
Data returned: 1

Data request: Entry "C[C@@H](N)Cc1c[nH]cn1.Cl.Cl" please
Data returned: 1

Data request: Entry "CCOC(=O)c1ncn2c1CN(C)C(=O)c1cc(F)ccc1-2" please
Data returned: 1

Data request: Entry "CCCCN(CC)c1nc(C)nc2c1c(C)cn2-c1c(C)cc(C)cc1C.Cl" please
Data returned: 1

Data request: Entry "Oc1cccc(-c2nc(N3CCOCC3)c3oc4ncccc4c3n2)c1" please
Data returned: 1

Data request: Entry "Cc1cc(OCC(=O)O)cc(C)c1Cc1ccc(O)c(C(C)C)c1" please
Data returned: 1
